Numbers sourced from PubChem BioAssay (NCATS).

assay: Quantitative High-Throughput drug screen in 47 multiple myeloma cell lines against the NCATS MIPE library collection: NCIH929_DSMZ cell viability assay (AID 1918978); conditions: NCI-H929 myeloma viability, CellTiter-Glo ATP, 48 h; series mostly up to 45.8 µM; also: nearly all actives have a fitted effect of over 35% in size
Results filed as inconclusive are left out. Active and inactive are the calls of the source. Calls follow the shape of the dose curve; as a rule, active = well fitted cell-killing curve with a large enough effect; inconclusive = small, poorly fitted or top-dose-only effect; inactive = no such curve, though single readings can be large or run the other way.
Tick one outcome: t (active), f (inactive)

The following compounds have reported results that may help.
COc1cc(C)c(C=CC(C)=CC=CC(C)=CC(=O)O)c(C)c1C | f
c1cncc(CN2CCC(n3ncc4c(N5CCOCC5)nc(-c5ccc6[nH]ccc6c5)nc43)CC2)c1 | t
C#C[C@]1(O)CC[C@@H]2[C@@H]3CCc4cc(O)ccc4[C@H]3CC[C@@]21C | t
NC1=N[C@H]2[C@H](CS[C@H]2CCCCC(=O)O)N1 | f
O=C(O)CCCCC(CCSCc1ccccc1)SCc1ccccc1 (stereo not given) | f
CCCNC(=O)[C@H]1O[C@H]1C(=O)N[C@H](C(=O)N1CCC[C@@H]1C(=O)OC)C(C)CC (stereo not given in full) | t
CC(C)c1cc(C(C)C)c(CC(=O)NS(=O)(=O)Oc2c(C(C)C)cccc2C(C)C)c(C(C)C)c1 | f
Oc1cc2c(cc1O)C1c3ccc(O)c(O)c3OCC1(O)C2 (stereo not given) | f
C=CC(=O)Nc1cc(NC(=O)c2ccc(C)c(NC(=O)c3ccno3)c2)cc(C(F)(F)F)c1 | t
CC(C)(O)Cn1c(NC(=O)c2ccc(-c3cn[nH]c3)s2)nc2cc(CN3CCOCC3)ccc21 | t

// outcome(item) with item = CON=C(C(=O)N[C@@H]1C(=O)N2C(C(=O)O)=C(Cn3ccc(=N)n3CCO)CS[C@H]12)c1csc(N)n1
f

What is the recorded call for this compound in the test? O=C(NNC(=O)c1ccc(CNS(=O)(=O)c2ccc(F)c(Cl)c2)cc1)c1ccccc1
f

Tell me the assay call for OCC(O)C(O)C(O)CO (stereo not given) please.
f

* * *

assay: Quantitative High-Throughput drug screen in 47 multiple myeloma cell lines against the NCATS MIPE library collection: MM1S_ATCC cell viability assay (AID 1918980); details: MM1S myeloma viability, CellTiter-Glo ATP luminescence, 48 h; series mostly up to 45.8 µM; also: nearly all actives have a fitted effect of over 45% in size
Records with an inconclusive call do not appear. Calls of active or inactive are those of the source. Calls come from the whole dose curve; as a rule, active = well fitted cell-killing curve with a large enough effect; inconclusive = small, poorly fitted or top-dose-only effect, or effect the other way; inactive = no such curve, though single readings can be large or run the other way. Starred links: 1 amine or outer side, 2 acyl side, 3 side chain; linkers in the order of their positions; H or OH if unused. Positions of bridges follow the written chain, without caps; N, C: chain ends. Non-standard residues stand in square brackets, D forms with d. Residues, ends and D or L forms follow the SMILES beside them. Chains are numbered I, II in the order given. Actinocin(9to1) = Cc1c2oc3c(C)ccc(C(=O)[*:1])c3nc-2c(C(=O)[*:2])c(N)c1=O; NMeV = CN[CH](C(=O)O)C(C)C; Sar = CNCC(=O)O
// one of active, inactive, no free text

C=C1CCC2[C@](C)(CO)C(O)CC[C@]2(C)C1CC=C1C(=O)OCC1O (stereo partly drawn) | inactive
Nc1ccc(C(=O)Nc2cccc(-c3nc(N4CCOCC4)c4oc5ncccc5c4n3)c2)cn1 | active
Cc1c2oc3c(C)ccc(C(=O)NC4C(=O)NC(C(C)C)C(=O)N5CCCC5C(=O)N(C)CC(=O)N(C)C(C(C)C)C(=O)OC4C)c3nc-2c(C(=O)NC2C(=O)NC(C(C)C)C(=O)N3CCCC3C(=O)N(C)CC(=O)N(C)C(C(C)C)C(=O)OC2C)c(N)c1=O (stereo not drawn) (I: TVP[Sar][NMeV] / II: TVP[Sar][NMeV]; ester I:1-I:C, II:1-II:C; linker I:N-II:N via Actinocin(9to1); configuration not given here) | inactive
CC(C)Oc1ccc(C(=O)N[C@H](CNC(=O)CN(C)C)Cc2ccc(-c3cn4cccc([C@H](C)O)c4n3)cc2)cc1Cl | active
C[C@]12CCC(=O)C=C1[C@@H]1CC1[C@H]1[C@H]3[C@@H]4C[C@H]4[C@@]4(CCC(=O)O4)[C@@]3(C)CC[C@H]12 (stereo partly drawn) | inactive

Write down the call the test reported for this compound. Item: Cc1ncc(-c2ccnc(Nc3ccc(S(C)(=O)=O)cc3)n2)n1C(C)C
active

For O=C(NC1CC1)c1cccc(-c2ccc3c(NC(=O)C4CC4)n[nH]c3c2)c1 , what call appears in the results of this test?
active

// outcome(item) with item = COc1ccc(S(=O)(=O)Nc2cccnc2Nc2ccc(O)cc2)cc1
active
